molecular target: GRASP, Q7Z6J2; assay: holdup assay; set-up: key: below the threshold = too weak to quantify, mostly under pKd 3.1 to 4; conditions: plain residues with an end cap or a label only (N-terminal biotin on a linker: ado-ado)
Sequence (Q7Z6J2 96-193): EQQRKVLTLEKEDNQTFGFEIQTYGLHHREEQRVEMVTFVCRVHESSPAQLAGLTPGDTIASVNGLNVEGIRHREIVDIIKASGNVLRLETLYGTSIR

{"Binder": "FNSYSLTGYV [CLDN2, P57739]", "pKd": 3.82}
{"Binder": "SKENVQETQI [LRRC4B, Q9NT99]", "pKd": "below the threshold"}
{"Binder": "KSGKQTMLVV [TRIM29, Q14134;Q14134-2]", "pKd": "below the threshold"}
